Test system: pCTD Ser5 in HCT116 cells
experiment_description: Phospho-carboxyl terminal domain (Ser5) p-CTD (S5) cell based Acumen assay
condition_details: Homo sapiens, HCT-116, 4 h, read-out: Relative IC50 for pCTD Ser5
measured_parameter: IC50 (nM)

| compound | measured_on | u | measured_value |
| --- | --- | --- | --- |
| C=CC(=O)N1CCO[C@H](CN2CCC(Nc3cc(C(F)(F)F)cn4c(C(C)C)cnc34)CC2)C1 | pCTD Ser5 in HCT116 cells | nM | 26.2 |

A. [2H]C([2H])=C([2H])C(=O)N1CCO[C@H](CN2CCC(Nc3cc(C(F)(F)F)cn4c(C(C)C)cnc34)CC2)C1
B. C=CC(=O)N1CCO[C@H](CN2CCC(Nc3cc(C(C)F)cn4c(C(C)C)cnc34)CC2)C1 (single isomer, unassigned)
C. [2H]CC([2H])(C)c1cnc2c(NC3CCN(C[C@@H]4CN(C(=O)C=C)CCO4)CC3)cc(C(F)(F)F)cn12 (mixture of isomers)
Q: Hey, quick one: sort these by IC50, largest value first please. Sort and list the labels as requested.
A: B, C, A

###

measured_on: CDK9/cyclinT1 (Homo sapiens)
Sequence (P50750 whole entry): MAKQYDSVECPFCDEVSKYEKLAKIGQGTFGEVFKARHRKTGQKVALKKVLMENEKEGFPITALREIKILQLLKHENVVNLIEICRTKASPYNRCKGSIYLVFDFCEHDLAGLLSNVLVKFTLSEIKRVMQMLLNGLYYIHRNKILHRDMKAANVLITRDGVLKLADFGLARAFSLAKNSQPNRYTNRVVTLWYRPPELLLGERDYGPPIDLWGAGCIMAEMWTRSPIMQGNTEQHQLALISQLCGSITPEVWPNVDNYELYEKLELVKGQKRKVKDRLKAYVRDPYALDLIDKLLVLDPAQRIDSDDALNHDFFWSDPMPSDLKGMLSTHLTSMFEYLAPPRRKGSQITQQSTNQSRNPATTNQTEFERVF
Sequence (O60563 whole entry partner): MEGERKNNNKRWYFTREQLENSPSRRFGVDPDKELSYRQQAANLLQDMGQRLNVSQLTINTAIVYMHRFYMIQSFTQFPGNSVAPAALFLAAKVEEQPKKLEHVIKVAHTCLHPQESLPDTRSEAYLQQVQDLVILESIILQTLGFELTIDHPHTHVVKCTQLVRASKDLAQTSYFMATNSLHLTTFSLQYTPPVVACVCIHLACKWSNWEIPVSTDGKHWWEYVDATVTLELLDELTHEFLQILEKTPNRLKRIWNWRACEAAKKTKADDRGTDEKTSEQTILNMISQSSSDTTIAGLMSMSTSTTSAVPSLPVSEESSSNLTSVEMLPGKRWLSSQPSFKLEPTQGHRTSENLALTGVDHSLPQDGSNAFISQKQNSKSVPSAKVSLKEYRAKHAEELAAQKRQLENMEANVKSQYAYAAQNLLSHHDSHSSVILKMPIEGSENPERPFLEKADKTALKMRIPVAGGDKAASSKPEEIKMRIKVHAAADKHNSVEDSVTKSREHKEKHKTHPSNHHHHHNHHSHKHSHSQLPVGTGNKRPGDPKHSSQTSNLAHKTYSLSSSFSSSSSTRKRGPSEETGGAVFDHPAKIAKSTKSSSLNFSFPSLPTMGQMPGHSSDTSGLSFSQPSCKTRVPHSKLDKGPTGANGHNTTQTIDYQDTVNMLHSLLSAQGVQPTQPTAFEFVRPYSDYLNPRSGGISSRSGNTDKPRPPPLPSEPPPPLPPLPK
experiment_description: Assay for inhibition of CDK9/CyclinT1 kinase activity (radiolabel filter binding)
condition_details: IC50 for CDK9 (3 hours preincubation), 100 µM ATP
pIC50: −log10 of the molar value.
measured_parameter: pIC50

Examples from the recorded data:
| compound | measured_parameter | measured_value |
| --- | --- | --- |
| C=CC(=O)N1CCO[C@H](CN2CCC(Nc3cc(C(F)(F)F)cn4c(C(C)C)cnc34)CC2)C1 | pIC50 | 5.67 |
| C=CC(=O)N1CCO[C@H](CN2CCC(Nc3cc(C(C)O)cn4c(C(C)C)cnc34)CC2)C1 (single isomer, unassigned) [Example 4] | pIC50 | 5.09 |
| C=CC(=O)N1CCO[C@H](CN2CCC(Nc3cc(C(C)F)cn4c(C(C)C)cnc34)CC2)C1 (single isomer, unassigned) [Example 1] | pIC50 | 5.75 |
| C=CC(=O)N1CCO[C@H](CN2CCC(Nc3cc(C(C)O)cn4c(C(C)C)cnc34)CC2)C1 (single isomer, unassigned) [Example 5] | pIC50 | 5.15 |
| [2H]CC([2H])(C)c1cnc2c(NC3CCN(C[C@@H]4CN(C(=O)C=C)CCO4)CC3)cc(C(F)(F)F)cn12 (mixture of isomers) | pIC50 | 5.69 |

I. C=CC(=O)N1CCO[C@H](CN2CCC(Nc3cc(C(C)F)cn4c(C(C)C)cnc34)CC2)C1 (single isomer, unassigned) [Example 2]
II. [2H]C([2H])=C([2H])C(=O)N1CCO[C@H](CN2CCC(Nc3cc(C(F)(F)F)cn4c(C(C)C)cnc34)CC2)C1
Q: Quick one: lower pIC50, I or II ? Your answer should be the label attached to the chosen record.
A: I
(I: 5.50, II: 5.79)

###

Test system: A2780
experiment_description: Cell proliferation assay (CELL TITER GLO), A2780
Assay type: cell-based
condition_details: Homo sapiens, 168 h; A2780 ovarian cancer, seven days after compound addition
measured_parameter: pIC50
FYI, pIC50 means -log10 of a concentration in mol per litre.

Q: Consider the molecule shown here: C=CC(=O)N1CCO[C@H](CN2CCC(Nc3cc(C(C)F)cn4c(C(C)C)cnc34)CC2)C1 (single isomer, unassigned) What is its recorded pIC50?
A: 7.64

###

measured_on: CDK7/CyclinH/Mat1 (Homo sapiens, UniProt P50613)
Sequence (P50613 whole entry): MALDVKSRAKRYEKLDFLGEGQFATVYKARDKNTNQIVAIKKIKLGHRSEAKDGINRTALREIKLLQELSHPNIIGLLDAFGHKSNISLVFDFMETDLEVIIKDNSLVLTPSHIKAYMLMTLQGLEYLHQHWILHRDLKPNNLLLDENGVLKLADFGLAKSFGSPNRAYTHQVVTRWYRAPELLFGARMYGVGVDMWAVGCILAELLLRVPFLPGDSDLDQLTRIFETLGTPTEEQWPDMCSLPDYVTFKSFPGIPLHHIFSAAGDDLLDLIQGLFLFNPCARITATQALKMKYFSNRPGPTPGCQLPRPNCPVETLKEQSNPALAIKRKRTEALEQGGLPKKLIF
Sequence (P51946 whole entry partner): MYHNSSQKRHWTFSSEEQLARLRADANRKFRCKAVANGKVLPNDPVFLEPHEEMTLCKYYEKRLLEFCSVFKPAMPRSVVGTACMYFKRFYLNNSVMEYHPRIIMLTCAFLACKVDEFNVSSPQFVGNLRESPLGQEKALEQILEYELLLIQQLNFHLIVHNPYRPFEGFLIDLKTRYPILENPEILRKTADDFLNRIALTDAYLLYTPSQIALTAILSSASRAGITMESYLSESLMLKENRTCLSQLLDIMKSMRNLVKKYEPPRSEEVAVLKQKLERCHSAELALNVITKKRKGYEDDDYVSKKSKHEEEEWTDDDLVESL
Sequence (P51948 whole entry partner): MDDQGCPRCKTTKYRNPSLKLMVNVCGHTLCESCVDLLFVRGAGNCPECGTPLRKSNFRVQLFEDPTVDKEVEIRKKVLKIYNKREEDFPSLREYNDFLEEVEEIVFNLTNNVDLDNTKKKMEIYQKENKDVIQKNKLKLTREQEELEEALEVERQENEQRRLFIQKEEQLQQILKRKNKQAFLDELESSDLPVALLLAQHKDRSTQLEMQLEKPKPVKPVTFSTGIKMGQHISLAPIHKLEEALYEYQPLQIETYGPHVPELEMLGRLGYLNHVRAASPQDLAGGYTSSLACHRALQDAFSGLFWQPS
experiment_description: Biochemical assay for inhibition of CDK7/CyclinH/MAT1 (radiolabel filter binding)
condition_details: IC50 in CDK7 without preincubation, no preincubation of enzyme with compound; 100 µM ATP
pIC50: −log10 of the molar value.
measured_parameter: pIC50

Here are 5 molecules together with their reported answers.
| molecule | measured_on | measured_parameter | measured_value |
| --- | --- | --- | --- |
| C=CC(=O)N1CCO[C@H](CN2CCC(Nc3cc(C(C)F)cn4c(C(C)C)cnc34)CC2)C1 (single isomer, unassigned) [Example 2] | CDK7/CyclinH/Mat1 (Homo sapiens, UniProt P50613) | pIC50 | 6.59 |
| C=CC(=O)N1CCO[C@H](CN2CCC(Nc3cc(C(C)F)cn4c(C(C)C)cnc34)CC2)C1 (single isomer, unassigned) [Example 1] | CDK7/CyclinH/Mat1 (Homo sapiens, UniProt P50613) | pIC50 | 6.91 |
| C=CC(=O)N1CCO[C@H](CN2CCC(Nc3cc(C(C)O)cn4c(C(C)C)cnc34)CC2)C1 (single isomer, unassigned) [Example 5] | CDK7/CyclinH/Mat1 (Homo sapiens, UniProt P50613) | pIC50 | 6.44 |
| [2H]C([2H])=C([2H])C(=O)N1CCO[C@H](CN2CCC(Nc3cc(C(F)(F)F)cn4c(C(C)C)cnc34)CC2)C1 [Example 6] | CDK7/CyclinH/Mat1 (Homo sapiens, UniProt P50613) | pIC50 | 7.17 |
| C=CC(=O)N1CCO[C@H](CN2CCC(Nc3cc(C(F)(F)F)cn4c(C(C)C)cnc34)CC2)C1 [Example 8] | CDK7/CyclinH/Mat1 (Homo sapiens, UniProt P50613) | pIC50 | 7.18 |

P. [2H]CC([2H])(C)c1cnc2c(NC3CCN(C[C@@H]4CN(C(=O)C=C)CCO4)CC3)cc(C(F)(F)F)cn12 (mixture of isomers) [Example 7]
Q. C=CC(=O)N1CCO[C@H](CN2CCC(Nc3cc(C(C)O)cn4c(C(C)C)cnc34)CC2)C1 (single isomer, unassigned) [Example 4]
Q: Kindly identify which of P and Q has the larger recorded pIC50 value. Kindly state the label of the option you pick.
A: P
